These data points were gathered from patent US4243408A.

system: Lambsquarter (Chenopodium album); assay: Pre-Emergent Test, herbicidal effectiveness; assay type: in vivo; conditions: pre-emergence, 504 h, 33 micrograms per cm^2, 3 weeks, 0-to-100 scale, read-out: Herbicidal Effectiveness, % Control Pre, L
Below, each entry is listed alongside its reported pest or weed control at 33 µg/cm2.
Value expressed in %; do not type the unit.

{"Compound": "Cc1nnc(CN(C(=O)CCl)c2ccc(Cl)c(Cl)c2)[nH]1 [Compound 27B]", "Recorded Endpoint": "pest or weed control at 33 µg/cm2", "Meas Value": 0}

Challenge: Dear colleague, I am looking for the recorded pest or weed control at 33 µg/cm2 of the following compound: CSc1nnc(CNc2c(C)cccc2C)o1 [Compound 24A]
Response given: 0

Challenge: Try "CCc1cccc(C)c1NCc1nnc(S)n1C" next.
Response given: 0

Challenge: # repeat for "Cc1cccc(C)c1NCc1nnc(S)n1C"
Response given: 0

Challenge: # iterate: Cc1nnc(CCN(C(=O)CCl)c2c(C)cccc2C)[nH]1 [Compound 10B]
Response given: 0

Challenge: Cool, now Cc1nnc(CNc2c(C)cccc2Cl)[nH]1 [Compound 22A]
Response given: 0

Challenge: For Cc1cccc(C)c1NC(C)c1nnc[nH]1 (stereo not shown) [Compound 12A] then?
Response given: 0

Challenge: Lookup "Cc1cccc(C)c1N(CCc1nnc[nH]1)C(=O)CCl"
Response given: 75

Challenge: CCc1nnc(CNc2c(C)cccc2CC)[nH]1 [Compound 15A] ?
Response given: 0

Challenge: What about this compound? CCc1cccc(CC)c1NCc1nnc[nH]1 [Compound 20A]
Response given: 0

Challenge: Again, but for "Cc1nnc(CN(C(=O)CCl)c2c(C)cccc2C)[nH]1"
Response given: 98

Challenge: Subsequent entry: "Cc1nnc(CNc2c(C)cccc2C)o1"
Response given: 0

Challenge: Request: "Cc1cccc(C)c1NCc1nnc[nH]1"
Response given: 0

Challenge: Proceed to "Cc1cccc(C)c1N(Cc1nnc[nH]1)C(=O)CCl"
Response given: 100

====

// reported pest or weed control at 5000 µg/mL, 33 µg/cm2 for each item listed
tested on: Watergrass (Echinochloa); test: Post-Emergent Test, herbicidal effectiveness; type: in vivo; settings: post-emergence, 504 h, 33 micrograms per cm^2, 3 weeks, 0-to-100 scale, read-out: Herbicidal Effectiveness, % Control Post, W
# value in %; strip the unit string

{"Compound": "CCc1cccc(C)c1NCc1nnc(C(C)C)[nH]1 [Compound 16A]", "Test System": "Watergrass (Echinochloa)", "Unit Symbol": "%", "Meas Value": 0}
{"Compound": "Cc1nnc(CCNc2c(C)cccc2C)[nH]1 [Compound 10A]", "Test System": "Watergrass (Echinochloa)", "Unit Symbol": "%", "Meas Value": 0}
{"Compound": "CCc1cccc(C)c1NCc1nnc(SC)n1C [Compound 21A]", "Test System": "Watergrass (Echinochloa)", "Unit Symbol": "%", "Meas Value": 0}
{"Compound": "CCc1cccc(CC)c1NCc1nnc[nH]1 [Compound 20A]", "Test System": "Watergrass (Echinochloa)", "Unit Symbol": "%", "Meas Value": 0}
{"Compound": "Cc1nnc(CNc2ccc(Cl)c(Cl)c2)[nH]1 [Compound 27A]", "Test System": "Watergrass (Echinochloa)", "Unit Symbol": "%", "Meas Value": 0}
{"Compound": "CCc1cccc(C)c1NCc1nnc(S)n1C", "Test System": "Watergrass (Echinochloa)", "Unit Symbol": "%", "Meas Value": 0}

Challenge: API: value(readout= pest or weed control at 5000 µg/mL, 33 µg/cm2, system= Watergrass (Echinochloa), query= "CCc1cccc(C)c1N(Cc1nnc(C)o1)C(=O)CCl" )
Response given: 60

Challenge: Another compound to look at: CCc1cccc(CC)c1N(Cc1nnc[nH]1)C(=O)CCl [Compound 20B]
Response given: 55

Challenge: Consider next the compound CSc1nnc(CN(C(=O)CCl)c2c(C)cccc2C)o1 [Compound 24B] in the same way.
Response given: 0

Challenge: Same for Cc1nnc(C(C)N(C(=O)CCl)c2c(C)cccc2C)[nH]1 (stereo not drawn) [Compound 11B]
Response given: 73

Challenge: Then this compound: CCc1cccc(C)c1N(Cc1nnc[nH]1)C(=O)CCl [Compound 17B]
Response given: 75

Challenge: And the next one, "Cc1nnc(CN(C(=O)CCl)c2c(C)cccc2C)o1" ?
Response given: 0

====

tested on: Watergrass (Echinochloa); assay: Pre-Emergent Test, herbicidal effectiveness; type: in vivo; conditions: pre-emergence, 504 h, 33 micrograms per cm^2, 3 weeks, 0-to-100 scale, read-out: Herbicidal Effectiveness, % Control Pre, W
pest or weed control at 33 µg/cm2 for assorted molecules
Give the value, in units of %, as a plain number.

{"Molecule": "Cc1cccc(C)c1N(C(=O)CCl)C(C)c1nnc[nH]1 (centres unmarked) [Compound 12B]", "Meas Value": 100}
{"Molecule": "Cc1cccc(C)c1N(Cc1nnc(S)[nH]1)C(=O)CCl [Compound 18B]", "Meas Value": 0}
{"Molecule": "Cc1cccc(C)c1NCc1nnc(S)[nH]1 [Compound 18A]", "Meas Value": 0}
{"Molecule": "CCc1cccc(C)c1N(Cc1nnc(SC)n1C)C(=O)CCl [Compound 21B]", "Meas Value": 98}
{"Molecule": "Cc1cccc(C)c1NC(C)c1nnc[nH]1 (centres unmarked) [Compound 12A]", "Meas Value": 0}

Challenge: Provide the documented pest or weed control at 33 µg/cm2 with Watergrass (Echinochloa) as the system for CCc1cccc(C)c1N(Cc1nnc[nH]1)C(=O)CCl [Compound 17B]
Response given: 100

Challenge: // repeat for CCc1cccc(C)c1NCc1nnc(SC)n1C [Compound 21A] and report
Response given: 0

Challenge: What would you report for CCc1cccc(C)c1N(Cc1nnc(C(C)C)[nH]1)C(=O)CCl [Compound 16B] ?
Response given: 100

Challenge: Same thing, different molecule: CSc1nnc(CN(C(=O)CCl)c2c(C)cccc2C)o1 [Compound 24B]
Response given: 100

Challenge: Repeat for the following molecule: "Cc1cccc(C)c1N(CCc1nnc[nH]1)C(=O)CCl"
Response given: 97

Challenge: Then this molecule: CCc1cccc(CC)c1N(Cc1nnc(SC)n1C)C(=O)CCl [Compound 23B]
Response given: 0

Challenge: What about this molecule? "CCc1nnc(CNc2c(CC)cccc2CC)[nH]1"
Response given: 0

Challenge: Would you mind doing "Cc1nnc(CNc2c(C)cccc2C)o1" as well?
Response given: 0

Challenge: Try "Cc1cccc(C)c1NCc1nnc(S)n1C" next.
Response given: 0

Challenge: Follow-up item: "CCc1cccc(CC)c1NCc1nnc(C)[nH]1"
Response given: 0

Challenge: Continue with Cc1nnc(CNc2ccc(Cl)c(Cl)c2)[nH]1 [Compound 27A]
Response given: 0

Challenge: Check CCc1cccc(C)c1NCc1nnc(C(C)C)[nH]1 [Compound 16A] too.
Response given: 0

Challenge: // next record CCc1cccc(CC)c1NCc1nnc[nH]1 [Compound 20A]
Response given: 0

Challenge: And for Cc1nnc(CNc2ccccc2C)[nH]1 [Compound 25A] ?
Response given: 0

Challenge: Another molecule: CCc1cccc(C)c1NCc1nnc[nH]1 [Compound 17A]
Response given: 0

Challenge: Query Cc1nnc(CN(C(=O)CCl)c2c(C)cccc2Cl)[nH]1 [Compound 22B] next
Response given: 100

Challenge: Next molecule: Cc1nnc(CCNc2c(C)cccc2C)[nH]1 [Compound 10A]
Response given: 0

Challenge: Cool, now CSc1nnc(CNc2c(C)cccc2C)n1C [Compound 14A]
Response given: 0

====

test system: Watergrass (Echinochloa); test: Pre-Emergent Test, herbicidal effectiveness; format: in vivo; settings: pre-emergence, 504 h, 33 micrograms per cm^2, 3 weeks, 0-to-100 scale, read-out: Herbicidal Effectiveness, % Control Pre, W
Recorded Endpoint: pest or weed control at 33 µg/cm2 (%)
# output: bare number, implied unit %

{"Compound": "Cc1nnc(C(C)N(C(=O)CCl)c2c(C)cccc2C)[nH]1 (stereo not drawn) [Compound 11B]", "Meas Value": 100}
{"Compound": "CCc1cccc(CC)c1NCc1nnc(SC)n1C [Compound 23A]", "Meas Value": 0}
{"Compound": "CCc1cccc(C)c1NCc1nnc(C)[nH]1", "Meas Value": 0}

Challenge: Could you tell me which pest or weed control at 33 µg/cm2 is on file for CCc1cccc(CC)c1N(Cc1nnc[nH]1)C(=O)CCl [Compound 20B] ?
Response given: 100

Challenge: Request: "CCc1cccc(C)c1N(Cc1nnc(C)o1)C(=O)CCl"
Response given: 100

Challenge: Now the same for "Cc1nc(CNc2c(C)cccc2C)n[nH]1"
Response given: 0

Challenge: Next record, please: Cc1nnc(CN(C(=O)CCl)c2cccc(C(F)(F)F)c2)[nH]1 [Compound 26B]
Response given: 65

Challenge: Let us now turn to Cc1nnc(CN(C(=O)CCl)c2ccccc2C)[nH]1 [Compound 25B]
Response given: 100

Challenge: And what about the compound "CCc1cccc(C)c1NCc1nnc(S)n1C" ?
Response given: 0

Challenge: Now try Cc1nnc(CNc2c(C)cccc2Cl)[nH]1 [Compound 22A] .
Response given: 0

Challenge: Same for "Cc1cccc(C)c1NCc1nnc[nH]1"
Response given: 0

Challenge: Input "Cc1nnc(CN(C(=O)CCl)c2c(C)cccc2C)[nH]1"
Response given: 100

Challenge: Would you kindly repeat that for Cc1nnc(CCN(C(=O)CCl)c2c(C)cccc2C)[nH]1 [Compound 10B] ?
Response given: 95

Challenge: Repeat for the following compound: Cc1nnc(C(C)Nc2c(C)cccc2C)[nH]1 (stereo not drawn) [Compound 11A]
Response given: 0

Challenge: Further, for CSc1nnc(CNc2c(C)cccc2C)o1 [Compound 24A] ?
Response given: 0

Challenge: Input CSc1nnc(CN(C(=O)CCl)c2c(C)cccc2C)n1C [Compound 14B]
Response given: 100

Challenge: Moving on to the next compound: "Cc1nnc(CN(C(=O)CCl)c2c(C)cccc2C)o1"
Response given: 100

Challenge: Please do the same for Cc1nnc(CN(C(=O)CCl)c2ccc(Cl)c(Cl)c2)[nH]1 [Compound 27B] as well.
Response given: 0
